- Method Description: chemical genetic growth profiling, strain panel (AID 1159580);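 note: tested at 20 µM; growth read once vehicle control cultures reached saturation at 30 °C; 1 = growth at the plate median or of vehicle wells; lower values mean less growth of the strain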
- Experimental Context: S. cerevisiae deletion strains, growth OD, locus YPR167C, strain met16, active compounds read low
Hit rate of the full screen: of about 5,500 compounds, about 2,000 (36%) were called active. Roughly 18% stayed inconclusive and do not appear here. Some of the results follow.
Metric Name: normalized growth
Lab note: jot the number down without any unit.

Known normalized growth results, listed for orientation:
CC[C@H](C)C(=O)O[C@H]1C[C@@H](C)C=C2C=C[C@H](C)[C@H](CC[C@@H]3C[C@@H](O)CC(=O)O3)[C@H]21 :: 0.99
CC[C@H](C)C(=O)O[C@H]1CCC=C2C=C[C@H](C)C(CCC3C[C@@H](O)CC(=O)O3)[C@H]21 (stereo partly drawn) :: 1
O=C(C1CCCCC1)N1CC(=O)N2CCc3ccccc3C2C1 (stereo not drawn) :: 1.02

query: Fill in: normalized growth of COC(=O)[C@@H]1OC(=O)[C@H]2O[C@@]23[C@@]1(C)CCC1[C@@]2(C)CCC(=O)C(C)(C)C2C[C@@H](OC(C)=O)[C@]13C (stereo partly drawn) is ___
result: 1.02

query: Follow-up entry: "O=C1OC(c2ccc(O)cc2)(c2ccc(O)cc2)c2ccccc21"
result: 0.972

query: Follow-up entry: "CO/N=C(\C(=O)N[C@@H]1C(=O)N2C(C(=O)O)=C(CSc3nc(=O)c(O)nn3C)CS[C@H]12)c1csc(N)n1"
result: 0.976

query: Follow-up entry: CC1(C)O[C@@H]2CC3C4CCC5=CC(=O)CCC5(C)C4(F)C(O)CC3(C)[C@]2(C(=O)CCl)O1 (stereo partly drawn)
result: 0.984

query: Follow-up entry: "CCN(CC)C(=O)c1cccc(C)c1"
result: 0.999
